test-target: T1, recombinant human KLK5 C-6His (Novoprotein, Catalog No. C415) (human, UniProt Q9Y337 23-293)
T1 construct: Bought protein; also called KLK5 protein (Novoprotein); not shown: C-terminal 6xHis tag ('C-6His')
test-description: SPR Biacore T200, polypeptide captured by anti-human IgG Fc, KLK5 as analyte, pH 7.4, steady state affinity fit
quantity-name: Kd (nM)

[[record]]
binder = "Spink9-30.Fc (SEQ ID NO: 55) (Fc fusion, Mutant SPINK9 domain fused directly to a C-terminal IgG Fc) IECAKQTKQMVDCSHYKKLPPEQVSWCTREYDPICGSDGKTYKNDCFFCSKVKKTDGTLKFVHFGKCEPKSCDKTHTCPPCPAPEAAGGPSVFLFPPKPKDTLMISRTPEVTCVVVDVSHEDPEVKFNWYVDGVEVHNAKTKPREEQYNSTYRVVSVLTVLHQDWLNGKEYKCKVSNKALPAPIEKTISKAKGQPREPQVYTLPPSREEMTKNQVSLTCLVKGFYPSDIAVEWESNGQPENNYKTTPPVLDSDGSFFLYSKLTVDKSRWQQGNVFSCSVLHEALHSHYTQKSLSLSPGK"
quantitative_readout = 0.0909

